assay.system: MHC DR2 (DRB1*1501/DRA*0101) (Homo sapiens, UniProt P01903+P01911)
Construct: endogenous in cells
experimental.protocol: HLA II Binding Assay (competition with biotinylated reference peptide)
experimental.context: purified HLA-DR, biotinylated reference compound for DRB1*1501, 37° C. 24 h to 72 h; read-out: Inhibition of peptide binding IC50 (against MHC DR2 (DRB1*1501/DRA*0101))
Numbered stars: 1 amine (or outer) side, 2 acyl side, 3 side chain; on linkers, the order of the positions; unused ones are H or OH. Square brackets hold non-standard residues; d marks the D form. Peptide text beside a SMILES is read from it. * marks the point of attachment. X1 = O=C(C(Cc1ccc2[nH]c3ccccc3c2c1)N[*:1])[*:2]; X7 = O=C([C@H](Cc1cccc2[nH]ncc12)N[*:1])[*:2]; Tic = O=C(O)[C@@H]1Cc2ccccc2CN1; Chg = N[C@H](C(=O)O)C1CCCCC1; X4 = c1cc(CCN*)c2cc[nH]c2c1; Nva = CCC[C@H](N)C(=O)O; Abu = CC[C@H](N)C(=O)O
compounds and their reported IC50

{"compound": "CCC[C@H](NC(C)=O)C(=O)N[C@H](C(=O)N[C@@H](CCCNC(=N)N)C(=O)N1Cc2ccccc2C[C@H]1C(=O)N[C@@H](Cc1ccccc1)C(N)=O)C1CCCCC1 [Ac(nor-V)(Chg)R(Tic)F] (Ac-[Nva][Chg]R[Tic]F-NH2)", "measured.endpoint": "IC50", "result": "1 to 10 nM"}

The compound listed as CC(=O)N[C@H](C(=O)N[C@H](C(=O)N[C@@H](CCCNC(=N)N)C(=O)N1Cc2ccccc2C[C@H]1C(=O)NC(Cc1ccc2[nH]c3ccccc3c2c1)C(N)=O)C1CCCCC1)C(C)C (stereo partly drawn) [AcV(Chg)R(Tic)-(3′-Carbazolyl Ala)] (Ac-V[Chg]R[Tic][X1]-NH2) has a reported IC50 of 100 to 1000 nM

The compound listed as CC(=O)N[C@H](C(=O)N[C@H](C(=O)N[C@@H](CCCNC(=N)N)C(=O)N1Cc2ccccc2C[C@H]1C(=O)NCCc1cccc2[nH]ccc12)C1CCCCC1)C(C)C [AcV(Chg)R(Tic)(4-ethylaminoindole)] (Ac-V[Chg]R[Tic]-X4) has a reported IC50 of 100 to 1000 nM

The compound listed as CC(=O)N[C@H](C(=O)N[C@H](C(=O)N[C@@H](Cc1c[nH]cn1)C(=O)N1Cc2ccccc2C[C@H]1C(=O)N[C@@H](Cc1ccccc1)C(N)=O)C1CCCCC1)C(C)C [AcV(Chg)H(Tic)F] (Ac-V[Chg]H[Tic]F-NH2) has a reported IC50 of 10 to 100 nM

The compound listed as CC[C@H](N)C(=O)N[C@H](C(=O)N[C@H](C(=O)N[C@@H](CCCNC(=N)N)C(=O)N1Cc2ccccc2C[C@H]1C(=O)N[C@@H](Cc1ccccc1)C(N)=O)C1CCCCC1)C(C)C [(NH2-Abu)V(Chg)R(Tic)F] (H-[Abu]V[Chg]R[Tic]F-NH2) has a reported IC50 of 1 to 10 nM

The compound listed as CC(=O)N[C@H](C(=O)N[C@H](C(=O)N[C@@H](CCCNC(=N)N)C(=O)N1Cc2ccccc2C[C@H]1C(=O)N[C@@H](Cc1cccc2[nH]ncc12)C(N)=O)C1CCCCC1)C(C)C [AcV(Chg)R(Tic)(4-Indazole)] (Ac-V[Chg]R[Tic][X7]-NH2) has a reported IC50 of 1 to 10 nM

Reference source for all entries: patent US20110217324A1
